Every entry's value here was drawn from patent US11440903B2.

# Protocol text: Solid stability test of the crystal forms (influence factors and acceleration tests; appearance, XRPD, HPLC content and impurities)
# Format: physicochemical
# Condition details: Light radiation (total illumination: 1.2 × 10^6 Lux·hr), 10 days
Endpoint: Total Impurities (%)

Compound: C=CC(=O)N[C@H]1COC[C@H]1Nc1ncc(/C=C(\F)c2c(Cl)c(OC)cc(OC)c2Cl)cn1.CS(=O)(=O)O [Crystal Form F]
Total Impurities (%): 0.73

Compound: C=CC(=O)N[C@H]1COC[C@H]1Nc1ncc(/C=C(\F)c2c(Cl)c(OC)cc(OC)c2Cl)cn1 [Crystal Form A]
Total Impurities (%): 1.10

a = C=CC(=O)N[C@H]1COC[C@H]1Nc1ncc(/C=C(\F)c2c(Cl)c(OC)cc(OC)c2Cl)cn1 [Crystal Form D]
b = C=CC(=O)N[C@H]1COC[C@H]1Nc1ncc(/C=C(\F)c2c(Cl)c(OC)cc(OC)c2Cl)cn1 [Crystal Form C]
## Task Please compare: a and b . Report which one has the smaller Total Impurities (%) value. Provide the label of your selected option as the answer.
## Result a
